assay: Metabolic stability in human plasma assessed as compound remaining after 2 hrs; type: ADME, cell-free; details: read-out: Stability
Property: remaining at 2 h

>>> value("O=C(Cc1ccc(Cl)c(Cl)c1)Nc1ccc(S(=O)(=O)Nc2ccon2)cc1")
"> 95%"
>>> value("O=C(Cc1ccc(F)c(Cl)c1)Nc1ccc(S(=O)(=O)Nc2nncs2)cc1")
"> 95%"

====

Let's go through some recorded IC50 values for ATP-dependent 6-phosphofructokinase (Trypanosoma cruzi, UniProt Q4E657) together.
Property: IC50 (nM)

>>> value("Cc1cc(NS(=O)(=O)c2ccc(NC(=O)Cc3ccc(Cl)c(F)c3)cc2)no1")
650
>>> value("Cc1cc(NS(=O)(=O)c2ccc(NC(=O)c3ccc(Cl)c(Cl)c3)cc2)no1")
20600
>>> value("O=C(Cc1ccc(Cl)c(Cl)c1)Nc1ccc(S(=O)(=O)Nc2cccc(C(=O)O)c2)cc1")
580
